These measurements were taken from patent US20070117743A1.

Tested on: LNCaP
Protocol Details: SRB colorimetric assay of cell growth and viability, LNCaP
Type: cell-based, human
Condition Set: 48 hours exposure, SRB
Measured Property: TGI LN-caP (Molar)
Numbers only, in Molar.

Worked examples, 4 molecules total:
Molecule	Observed Measurement
C/C=C1\NC(=O)[C@H](Cc2ccc(I)cc2)NC(=O)[C@@H](C(C)C)NC(=O)[C@@H]([C@@H](C)CC)NC(=O)[C@H](NC(=O)[C@H](NC(=O)[C@H](CCCN)NC(=O)[C@H]2CCCN2C(=O)[C@H](NC(=O)[C@@H](NC(=O)[C@@H](NC(=O)[C@H](NC(=O)CC[C@@H](C)CC)C(C)C)[C@@H](C)O)C(C)C)C(C)C)[C@@H](C)CC)[C@@H](C)OC(=O)[C@H](C(C)C)NC1=O [Compound 72, [Phe(4-I)^3, (4S)-MeHex^14]-KF]	8.42E−07
C/C=C1\NC(=O)[C@H](Cc2ccccc2)NC(=O)[C@@H](C(C)C)NC(=O)[C@@H]([C@@H](C)CC)NC(=O)[C@H](NC(=O)[C@H](NC(=O)[C@H](CCCN)NC(=O)[C@H]2CCCCN2C(=O)[C@H](NC(=O)[C@@H](NC(=O)[C@@H](NC(=O)[C@H](NC(=O)CC[C@@H](C)CC)C(C)C)[C@@H](C)O)C(C)C)C(C)C)[C@@H](C)CC)[C@@H](C)OC(=O)[C@H](C(C)C)NC1=O [Compound 60, [D-Pip^9, (4S)-MeHex^14]-KF]	2.59E−06
C/C=C1\NC(=O)[C@@H](Cc2ccccc2)NC(=O)[C@H](C(C)C)NC(=O)[C@H]([C@H](C)CC)NC(=O)[C@@H](NC(=O)[C@@H](NC(=O)[C@@H](CCCN)NC(=O)[C@@H]2CCCN2C(=O)[C@@H](NC(=O)[C@H](NC(=O)[C@H](NC(=O)[C@@H](NC(=O)CCCC(C)C)C(C)C)[C@H](C)O)C(C)C)C(C)C)[C@H](C)CC)[C@H](C)OC(=O)[C@@H](C(C)C)NC1=O	6.77E−06
C/C=C1\NC(=O)[C@H](Cc2ccccc2)NC(=O)[C@@H](C(C)C)NC(=O)[C@@H]([C@@H](C)CC)NC(=O)[C@H](NC(=O)[C@H](NC(=O)[C@H](CCCNC(=O)C(F)(F)F)NC(=O)[C@H]2CCCN2C(=O)[C@H](NC(=O)[C@@H](NC(=O)[C@@H](NC(=O)[C@H](NC(=O)CC[C@@H](C)CC)C(C)C)[C@@H](C)OC(=O)C(F)(F)F)C(C)C)C(C)C)[C@@H](C)CC)[C@@H](C)OC(=O)[C@H](C(C)C)NC1=O	5.99E−06

Next:
// sample C/C=C1\NC(=O)[C@H](Cc2ccccc2)NC(=O)[C@@H](C(C)C)NC(=O)[C@@H]([C@@H](C)CC)NC(=O)[C@H](NC(=O)[C@H](NC(=O)[C@H](CCCN)NC(=O)[C@@H]2CC[C@H](c3ccccc3)N2C(=O)[C@H](NC(=O)[C@@H](NC(=O)[C@@H](NC(=O)[C@H](NC(=O)CC[C@@H](C)CC)C(C)C)[C@@H](C)O)C(C)C)C(C)C)[C@@H](C)CC)[C@@H](C)OC(=O)[C@H](C(C)C)NC1=O [Compound 62, [(5R)-Ph-Pro^9, (4S)-MeHex^14]-KF] , its TGI LN-caP was 6.43E−06

====

Tested on: HeLa-APL
Protocol Details: SRB colorimetric assay of cell growth and viability, HeLa-APL
Format: cell-based, human
Condition Set: 48 hours exposure, SRB; read-out: LC50 HELA-APL
Where a SMILES comes first, the peptide text is derived from it. Bridges are numbered along the chain shown (N, C = ends). [ ]: non-standard residue; d: D form. The star is where a group is joined. d(aIle) = CC[C@H](C)[C@@H](N)C(=O)O; d(aThr) = C[C@@H](O)[C@@H](N)C(=O)O; Hexanoyl(5-Me) = CC(C)CCCC(=O)*; Orn = NCCC[C@H](N)C(=O)O; Dhb = C/C=C(\N)C(=O)O; Aib = CC(C)(N)C(=O)O; Dha = C=C(N)C(=O)O
Could you please report measured CC50 for the items listed next?

Compound	Test Target	Observed Measurement
C/C=C1\NC(=O)[C@H](Cc2ccccc2)NC(=O)[C@@H](C(C)C)NC(=O)[C@@H]([C@@H](C)CC)NC(=O)[C@H](NC(=O)[C@H](NC(=O)[C@H](CCCN)NC(=O)[C@H]2CCCN2C(=O)[C@H](NC(=O)[C@@H](NC(=O)[C@@H](NC(=O)[C@H](NC(=O)CC[C@@H](C)CC)C(C)C)[C@@H](C)OC(=O)C(F)(F)F)C(C)C)C(C)C)[C@@H](C)CC)[C@@H](C)OC(=O)[C@H](C(C)C)NC1=O	HeLa-APL	3.92 µM
CC[C@H](C)[C@@H](NC(=O)[C@H](CCCN)NC(=O)[C@H]1CCCN1C(=O)[C@H](NC(=O)[C@@H](NC(=O)[C@@H](NC(=O)[C@H](NC(=O)CCCC(C)C)C(C)C)[C@@H](C)O)C(C)C)C(C)C)C(=O)N[C@H]1C(=O)N[C@H]([C@@H](C)CC)C(=O)N[C@H](C(C)C)C(=O)N[C@@H](Cc2ccccc2)C(=O)NC(C)(C)C(=O)N[C@@H](C(C)C)C(=O)O[C@@H]1C [Compound 66, [Aib^2]-KF] ({Hexanoyl(5-Me)}-[dV]TV[dV][dP][Orn][d(aIle)][d(aThr)][d(aIle)][dV]F[Aib]V; ester 8-C)	HeLa-APL	≥ 6.76 µM
C/C=C1\NC(=O)[C@@H](Cc2ccccc2)NC(=O)[C@H](C(C)C)NC(=O)[C@H]([C@H](C)CC)NC(=O)[C@@H](NC(=O)[C@@H](NC(=O)[C@@H](CCCN)NC(=O)[C@@H]2CCCN2C(=O)[C@@H](NC(=O)[C@H](NC(=O)[C@H](NC(=O)[C@@H](NC(=O)CCCC(C)C)C(C)C)[C@H](C)O)C(C)C)C(C)C)[C@H](C)CC)[C@H](C)OC(=O)[C@@H](C(C)C)NC1=O	HeLa-APL	≥ 6.77 µM

# batch: return CC50 for each of the 4 compounds below
1. C=C1NC(=O)[C@H](Cc2ccccc2)NC(=O)[C@@H](C(C)C)NC(=O)[C@@H]([C@@H](C)CC)NC(=O)[C@H](NC(=O)[C@H](NC(=O)[C@H](CCCN)NC(=O)[C@H]2CCCN2C(=O)[C@H](NC(=O)[C@@H](NC(=O)[C@@H](NC(=O)[C@H](NC(=O)CCCC(C)C)C(C)C)[C@@H](C)O)C(C)C)C(C)C)[C@@H](C)CC)[C@@H](C)OC(=O)[C@H](C(C)C)NC1=O [Compound 67, [Dha^2]-KF] ({Hexanoyl(5-Me)}-[dV]TV[dV][dP][Orn][d(aIle)][d(aThr)][d(aIle)][dV]F[Dha]V; ester 8-C)
2. C/C=C1\NC(=O)[C@H](Cc2ccccc2)NC(=O)[C@@H](C(C)C)NC(=O)[C@@H]([C@@H](C)CC)NC(=O)[C@H](NC(=O)[C@H](NC(=O)[C@H](CCCN)NC(=O)[C@H]2CCCN2C(=O)[C@H](NC(=O)[C@@H](NC(=O)[C@H](CCC(N)=O)NC(=O)CCCC(C)C)C(C)C)C(C)C)[C@@H](C)CC)[C@@H](C)OC(=O)[C@H](C(C)C)NC1=O [Compound 58, [Gln^12, noD-Val^13]-KF] ({Hexanoyl(5-Me)}-QV[dV][dP][Orn][d(aIle)][d(aThr)][d(aIle)][dV]F[Dhb]V; ester 7-C)
3. C/C=C1\NC(=O)[C@H](Cc2c(F)c(F)c(F)c(F)c2F)NC(=O)[C@@H](C(C)C)NC(=O)[C@@H]([C@@H](C)CC)NC(=O)[C@H](NC(=O)[C@H](NC(=O)[C@H](CCCN)NC(=O)[C@H]2CCCN2C(=O)[C@H](NC(=O)[C@@H](NC(=O)[C@@H](NC(=O)[C@H](NC(=O)CC[C@@H](C)CC)C(C)C)[C@@H](C)O)C(C)C)C(C)C)[C@@H](C)CC)[C@@H](C)OC(=O)[C@H](C(C)C)NC1=O [Compound 71, [Phe(F5)^3, (4S)-MeHex^14]-KF]
4. C/C=C1\NC(=O)[C@H](Cc2ccccc2)NC(=O)[C@@H](C(C)C)NC(=O)[C@@H]([C@@H](C)CC)NC(=O)[C@H](NC(=O)[C@H](NC(=O)[C@H](CCCN)NC(=O)[C@H]2CCCN2C(=O)[C@H](NC(=O)[C@@H](NC(=O)[C@@H](NC(=O)[C@H](NC(=O)CC[C@@H](C)[C@H]2CC[C@H]3[C@@H]4CC[C@@H]5C[C@H](OC(=O)C(F)(F)F)CC[C@]5(C)[C@H]4CC[C@]23C)C(C)C)[C@@H](C)OC(=O)C(F)(F)F)C(C)C)C(C)C)[C@@H](C)CC)[C@@H](C)OC(=O)[C@H](C(C)C)NC1=O

1: 3.75 µM; 2: ≥ 7.11 µM; 3: 3.7 µM; 4: 3.44 µM
